meta.source: patent US20070197590A1

# System: MCP-1 induced chemotaxis of THP-1 cells
# assay comment: MCP-1 Induced Chemotaxis in THP-1 Cells
# Type: cell-based
# run conditions: Homo sapiens, MCP-1 0.01 μg/mL, 3 hours at 37° C., read-out: Inhibition of MCP-1 Induced Chemotaxis IC50
value type: pIC50
Quick note: pIC50 values are minus log10 of concentrations in mol/L.

Known results for molecules:
• COc1ccc(C2CCN(CC(O)C3(O)CCN(C(=O)/C=C/c4cc(F)c(F)c(F)c4)CC3)CC2)cc1 (stereo not drawn) = 7.52
• COc1ccc(C2CCN(CC(O)C3CCN(C(=O)/C=C/c4cccc(C(F)(F)F)c4)CC3)CC2)cc1 (stereo not drawn) = 7.22

// below: pIC50 requested for another molecule
// pIC50 lookup, key: O=C(/C=C/c1cc(F)cc(F)c1)N1CCC(C(O)CN2CCC(c3c[nH]c4ccccc34)CC2)CC1 (stereo not drawn) 7.52

----------
# target: CCR2 (Homo sapiens, UniProt P41597)
# Sequence (P41597 1-360 isoform P41597-2): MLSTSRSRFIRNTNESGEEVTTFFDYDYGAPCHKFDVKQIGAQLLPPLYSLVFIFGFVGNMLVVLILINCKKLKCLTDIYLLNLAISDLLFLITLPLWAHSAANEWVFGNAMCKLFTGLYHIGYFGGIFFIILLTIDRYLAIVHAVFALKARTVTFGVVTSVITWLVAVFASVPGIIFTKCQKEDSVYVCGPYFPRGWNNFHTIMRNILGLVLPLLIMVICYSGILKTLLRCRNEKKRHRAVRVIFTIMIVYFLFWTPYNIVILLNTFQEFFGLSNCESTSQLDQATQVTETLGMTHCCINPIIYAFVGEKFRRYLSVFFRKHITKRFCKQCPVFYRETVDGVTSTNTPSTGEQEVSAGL
# assay comment: MCP-1 Receptor Binding Assay in THP-1 Cells
# run conditions: THP-1 cells, 0.5 nM 125I labeled MCP-1, 2 hours at 30° C.; read-out: Inhibition of MCP-1 Binding IC50
For each record, check the reported IC50: if it is below 300 nM write met, else write not met.

Worked set:
- CSc1ccc(NC(=O)N2CCC(C(O)CN3CCC(c4c[nH]c5ncccc45)CC3)CC2)cc1 (stereo not shown) [Compound 25]: not met
- COc1ccc(C2CCN(CC(O)C3CCN(C(=S)Nc4ccc(C(F)(F)F)cc4)CC3)CC2)cc1 (stereo not shown) [Compound 106]: not met
- O=C(/C=C/c1cc(F)cc(F)c1)N1CCC(O)(C(O)CN2CCC(c3ccc(F)cc3)CC2)CC1 (stereo not shown) [Compound 130]: met
- COc1ccc(C2CCN(CC(O)C3CCN(C(=O)/C=C/c4cc(F)cc(F)c4)CC3)CC2)cc1 (stereo not shown) [Compound 12]: met
- COc1ccc(C2CCN(CC(NC(=O)N(C)C)C3CCN(C(=O)C=Cc4cc(F)c(F)c(F)c4)CC3)CC2)cc1 (stereo not shown) [Compound 68]: not met

Item O=C(Nc1ccc(Cl)c(Cl)c1)N1CCC(O)(C(O)CN2CCC(c3ccc(Cl)cc3)CC2)CC1 (stereo not shown) [Compound 165] : IC50 beneath 300 nM, strictly? met

Bench note: check whether O=C(Nc1ccc(Cl)c(Cl)c1)N1CCC(O)(C(O)CN2CCC(c3c[nH]c4ccc(N5CCOCC5)cc34)CC2)CC1 (stereo not shown) [Compound 181] shows IC50 below 300 nM met

----------
# Test system: MCP-1 induced chemotaxis of THP-1 cells
# assay comment: MCP-1 Induced Chemotaxis in THP-1 Cells
# Format: cell-based
# run conditions: Homo sapiens, MCP-1 0.01 μg/mL, 3 hours at 37° C., read-out: Inhibition of MCP-1 Induced Chemotaxis IC50
value type: pIC50
Friendly reminder that pIC50 comes from taking -log10 of the concentration in mol/L.

Below, each entry is followed by its recorded pIC50 result.
* COc1ccc(C2CCN(CC(CO)C3CCN(C(=O)/C=C/c4cc(F)cc(F)c4)CC3)CC2)cc1 (stereo not shown) [Compound 45] | 6.77
* O=C(/C=C/c1cc(Cl)cc(Cl)c1)N1CCC(O)(C(O)CN2CCC(c3c[nH]c4ccccc34)CC2)CC1 (stereo not shown) [Compound 73] | 7.52
* O=C(/C=C/c1cc(F)c(F)c(F)c1)N1CCC(O)(C(O)CN2CCC(c3ccc(Cl)cc3)CC2)CC1 (stereo not shown) [Compound 163] | 8.30

Could you share which pIC50 value was measured for CS(=O)(=O)Nc1ccc2[nH]cc(C3CCN(CC(N)C4CCN(C(=O)C=Cc5cc(F)c(F)c(F)c5)CC4)CC3)c2c1 (stereo not shown) [Compound 28] ? 6.43

Please look up its pIC50: COc1ccc(C2CCN(CC(O)C3CCN(C(=S)Nc4cc(F)cc(F)c4)CC3)CC2)cc1 (stereo not shown) [Compound 107] 7.40
